System: MCF7 breast
Assay: NCI-60 one-dose screen, 48 h (100 = growth as untreated, 0 = no growth, -100 = all killed)
Settings: 10 µM unless noted
Procedure: Growth inhibition of the MCF7 human tumor cell line is measured as a screen for anti-cancer activity. Cells are grown in 96 well plates and exposed to the test compound for 48 hours. Compounds are tested at a single concentration, which is 10^-5 M for most compounds. The reported endpoint is percent growth (GI% or GIPRCNT), where numbers from 0 - 100% represent growth inhibition, and numbers from -100% - 0 represent cell death. For example, a value of 40 represents 60% growth inhibition. […]
This is part of a sample that, as a whole, favours compounds with a hit. Of some 83,000 tested, about 20% had one in any assay.
The following compounds are shown together with reported growth values.
Reply with just the number (in %).

Example entries and their recorded answers appear below.
{"columns": ["Compound", "Target under test", "Result type", "Units of measure", "Recorded number"],
 "data": [
  ["Cc1ccc(-n2cc(/C=N/NC(=O)c3nc(N)n[nH]3)c(-c3ccc(S(C)(=O)=O)cc3)n2)cc1", "MCF7 breast", "growth", "%", 94.2],
  ["CCN(CC)c1ccc2c(c1)Oc1nc(N)c(C#N)c(N)c1C2Sc1ccc(C)cc1 (centres undefined)", "MCF7 breast", "growth", "%", -70.7],
  ["CNc1ncc2cc(-c3ccc(-c4ncccc4F)cc3Cl)c(=O)n(CC3OCC(N)CO3)c2n1 (centres undefined)", "MCF7 breast", "growth", "%", 101],
  ["CCCCCc1ccc(S(=O)(=O)Nc2cccc(-c3csc(NC(=O)CN4CCN(C)CC4)n3)c2)cc1", "MCF7 breast", "growth", "%", 26.2],
  ["O=C(Nc1nc2ccc([N+](=O)[O-])cc2s1)Nc1ccccc1Cl", "MCF7 breast", "growth", "%", 55.8]
]}

INPUT: Returns the measured growth for the input compound. Input: CC(=O)O[C@@H]1C(=O)N(c2cnccn2)[C@H]1c1ccccc1[N+](=O)[O-]
OUTPUT: 15.5

INPUT: Thanks! And CCNC(=O)N1CCc2cc(OC)c(OCCc3ccc(OC)nc3)cc2C1c1ccc(C)cc1C (centres undefined) ?
OUTPUT: 14

INPUT: Thanks! And COc1cccc(/C=C(/C)c2ccc3cccc(OC)c3[o+]2)c1O ?
OUTPUT: 90.9

INPUT: Thanks! And COc1cc(-c2nn(C(C)(C)C)cc2-c2ccnc(NCCCNS(=O)(=O)c3ccc(F)cc3)n2)ccc1Cl ?
OUTPUT: 74.3

###

The following compounds are shown together with reported growth values.
System: SK-MEL-28 melanoma
Test: NCI-60 one-dose screen, 48 h (100 = growth as untreated, 0 = no growth, -100 = all killed)
Details: 10 µM unless noted
Compounds without any hit were thinned out: in the full panel of roughly 83,000, 20% have a hit.
Reply with just the number (in %).

Example entries and their recorded answers appear below.
{"columns": ["Compound", "growth / %"],
 "data": [
  ["NC(=O)c1c(NC(=O)c2ccccc2C(F)(F)F)sc2c1CCC(=O)C2", 42.4],
  ["CC(=O)C1=C(C)NC(NNC(N)=S)=NC1c1ccccc1 (stereo not given)", 98.1],
  ["Nc1ncc(-c2ccc3ncnc(Nc4cccc(Cl)c4F)c3c2)cn1", 65.2],
  ["COc1ccccc1N1CCN(C2=CC(=O)C(C)=C(C)C2=O)CC1", 119]
]}

INPUT: Returns the measured growth for the input compound. Input: CC1(C)CC[C@]23CC[C@]4(C)[C@H](CC[C@@H]5[C@@]6(C)CCCN(CO)C(C)(C)[C@@H]6CC[C@]54C)[C@H]2[C@H]1OC3
OUTPUT: 103
